Biological target: T1, 017-mut7 peptide (…)/HLA-A*02:01 complex on T2 cells (human)
T1 construct: Alanine mutant at position 7
Experiment: flow cytometry, phage on peptide-loaded T2 cells
PROPERTY: MFI
# output: bare number, no unit

BINDER: EXT017-20 scFv phage clone (scFv, full-length scFv with His+HA tags; also called EXT017-20 phage) scFv: QSVVTQPPSVSAAPGQKVTISCSGSSSNIGAGYDVHWYQQLPGTAPKLLIYGNSNRPSGVPDRFSGSKSGTSASLAITGLQAEDEADYYCQSYDSSLSGSVFGGGTKLTVLGSRGGGGSGGGGSGGGGSLEMAEVQLVQSGAEVKKPGSSVKVSCKASGGTFSSYAISWVRQAPGQGLEWMGGIIPIFGTANYAQKFQGRVTITADESTSTAYMELSSLRSEDTAVYYCARYSYKYGELDTWGQGTLVTVSSTSGQAGQHHHHHHGAYPYDVPDYAS
MFI: 94.9

BINDER: EXT017-53 scFv phage clone (scFv, full-length scFv with His+HA tags; also called EXT017-53 phage) scFv: NFMLTQPHSVSESPGKTVTISCTRSSGSIASHYVQWYQQRPGSSPTTVIYENNQRPSGVPDRFSGSIDSSSNSASLTISGLKTEDEADYYCQSYDRSNHVVFGGGTKLTVLGSRGGGGSGGGGSGGGGSLEMAQVQLVQSGAEVKKPGASVKVSCKASGYTFTNYYIHWVRQAPGEGLEWMGIIRPSGGNTNYAQKFQGRVTMTRDTSTRTVYMELSSLRSEDTAVYYCARSWNSRDVDSWGQGTLVTVSSTSGQAGQHHHHHHGAYPYDVPDYAS
MFI: 98.9

BINDER: EXT017-28 scFv phage clone (scFv, full-length scFv with His+HA tags; also called EXT017-28 phage; phage clone #28) scFv: QSVLTQPPSVSGAPGQRVTISCTGSSSNIGAGYDVHWYQQLPGTAPKLLIYGNSDRPSGVPDRFSGSKSGTSASLAITGLQAEDEADYYCQSYDSSLSGYVFGTGTKVTVLGSRGGGGSGGGGSGGGGSLEMAQMQLVQSGAEVKKPGSSVKVSCKASGGTFSTYAISWVRQAPGQGLEWMGGIIPIFGTANYAQKFQGRVTITADKSTSTAYMEVRNLRSEDTAVYYCARAEYVYGEYDQWGQGTLVTVSSTSGQAGQHHHHHHGAYPYDVPDYAS
MFI: 96.4

BINDER: EXT017-17 scFv phage clone (scFv, fusion to the phage coat protein not described; also called EXT017-17 phage; phage clone #17) scFv: QSVLTQPPSVSGAPGQRVTISCTGSSSNIGAGYDVHWYQQLPGTAPKLLIYGNSNRPSGVPDRFSGSKSGTSASLAITGLQAEDEADYYCQSYDSSLSGYVFGTGTKVTVLGSRGGGGSGGGGSGGGGSLEMAEVQLVQSGAEVKKPGSSVKVSCKASGDTFSRYAISWVRQAPGQGLEWMGRIIPIFGTPNYAQKFQGRVTITADEFTSTAYMELSSLRSEDTAMYYCARSIYRYSEYDHWGQGTLVTVSSTSGQAGQHHHHHHGAYPYDVPDYAS
MFI: 97.8

BINDER: EXT017-54 scFv phage clone (scFv, full-length scFv with His+HA tags; also called EXT017-54 phage) scFv: QAVLTQPPSLSGGPRQRVTISCSGSTSNIGKNGVSWYQQLPGKAPKLLIYNDHLLSSGVSDRFSGSKSGTSASLAISGLQSDDEADYYCATWDDTLDLPLFGGGTKVTVLGSRGGGGSGGGGSGGGGSLEMAQMQLVQSGAEVEKPGASVKLSCKASGGTFSSYAISWVRQAPGQGLEWMGGIIPIFGTANYAQKFQGRVTITADESTSTAYMELSSLRSEDTAVYYCARPSYYSIKSAWDHWGQGTLVTVSSTSGQAGQHHHHHHGAYPYDVPDYAS
MFI: 91.1

Query: What value of MFI has been reported for the following binder? EXT017-32 scFv phage clone (scFv, also called EXT017-32 phage; phage clone #32) scFv: QSVLTQPPSVSVAPGKTARITCGGNNIGSKSVHWYQQKPGQAPVLVIYYDSDRPSGIPERFSGSNSGNTATLTISRVEAGDEADYYCQVWDSSSDHYVFGTGTKVTVLGSRGGGGSGGGGSGGGGSLEMAEVQLVESGGGVVQPGRSLRLSCAASGFTFNNHAMHWVRQAPGKGLEWVAVISFDGDDKFYADSVKGRFTISRDNSRNTLFLQMNNLRPEDTAVYYCSRDPYHFASGSYSYFDYWGQGTLVTVSSTSGQAGQHHHHHHGAYPYDVPDYAS
Response: 99.6
